- assay_method_text: Dynamic surface tension of aqueous solutions, maximum bubble pressure method
- Format: physicochemical
- measurement_parameters: 0.1 wt % in water; 6 b/s
measured_property: Dynamic Surface Tension (dyne/cm)

// query Item under review: CC(C)CC(C)NCCCOCCOCCOCCCNC(C)CC(C)C (stereo not shown) . Reported Dynamic Surface Tension?
// result 40.8

// query Another: CC(C)CC(C)NCCCOCCCNC(C)CC(C)C (stereo not shown)
// result 32.6

// query Another: CC(C)CC(C)NCCOCCNC(C)CC(C)C (stereo not shown)
// result 31.8

// query Another: CC(C)CC(C)NCCCOCCOCCCNC(C)CC(C)C (stereo not shown)
// result 37.2

###

- assay_method_text: Dynamic surface tension of aqueous solutions, maximum bubble pressure method
- Type: physicochemical
- measurement_parameters: 0.1 wt % in water; 1 b/s
measured_property: Dynamic Surface Tension (dyne/cm)

// query Item under review: CC(C)CC(C)NCCOCCNC(C)CC(C)C (stereo not shown) . Reported Dynamic Surface Tension?
// result 30.8

// query Another: CC(C)CC(C)NCCCOCCOCCOCCCNC(C)CC(C)C (stereo not shown)
// result 39.7

// query Another: CC(C)CC(C)NCCCOCCOCCCNC(C)CC(C)C (stereo not shown)
// result 36.0

// query Another: CC(C)CC(C)NCCCOCCCNC(C)CC(C)C (stereo not shown)
// result 31.3

###

- assay_method_text: Dynamic surface tension of aqueous solutions, maximum bubble pressure method
- Assay type: physicochemical
- measurement_parameters: 0.1 wt % in water; 0.1 b/s
measured_property: Dynamic Surface Tension (dyne/cm)

// query Item under review: CC(C)CC(C)NCCCOCCOCCOCCCNC(C)CC(C)C (stereo not shown) [BAPEE/MIBK2] . Reported Dynamic Surface Tension?
// result 39.2

// query Another: CC(C)CC(C)NCCCOCCCNC(C)CC(C)C (stereo not shown) [APE/MIBK2]
// result 30.8

// query Another: CC(C)CC(C)NCCOCCNC(C)CC(C)C (stereo not shown) [AEE/MIBK2]
// result 30.3

// query Another: CC(C)CC(C)NCCCOCCOCCCNC(C)CC(C)C (stereo not shown) [BAPE/MIBK2]
// result 35.5

###

- assay_method_text: Dynamic surface tension of aqueous solutions, maximum bubble pressure method
- Assay type: physicochemical
- measurement_parameters: 0.1 wt % in water; 15 b/s
measured_property: Dynamic Surface Tension (dyne/cm)

// query Item under review: CC(C)CC(C)NCCCOCCCNC(C)CC(C)C (stereo not shown) . Reported Dynamic Surface Tension?
// result 34.4

// query Another: CC(C)CC(C)NCCCOCCOCCOCCCNC(C)CC(C)C (stereo not shown)
// result 42.0

// query Another: CC(C)CC(C)NCCCOCCOCCCNC(C)CC(C)C (stereo not shown)
// result 38.7

// query Another: CC(C)CC(C)NCCOCCNC(C)CC(C)C (stereo not shown)
// result 33.4

###

- assay_method_text: Dynamic surface tension of aqueous solutions, maximum bubble pressure method
- Type: physicochemical
- measurement_parameters: 0.1 wt % in water; 20 b/s
measured_property: Dynamic Surface Tension (dyne/cm)

// query Item under review: CC(C)CC(C)NCCCOCCOCCCNC(C)CC(C)C (stereo not shown) . Reported Dynamic Surface Tension?
// result 39.2

// query Another: CC(C)CC(C)NCCCOCCOCCOCCCNC(C)CC(C)C (stereo not shown)
// result 42.2

// query Another: CC(C)CC(C)NCCCOCCCNC(C)CC(C)C (stereo not shown)
// result 34.9

// query Another: CC(C)CC(C)NCCOCCNC(C)CC(C)C (stereo not shown)
// result 34.1
